reported-metric: melting point (°C)

a: COc1ccc(C(=O)Nc2cccnc2Cl)c2c1oc1ccccc12
b: COc1ccc(C(=O)Nc2c(Cl)cncc2Cl)c2c1oc1ccc(Br)cc12
In: Please indicate which entry, a or b , has the lower recorded melting point value. Let me know the label of the one you choose.
Out: a
(a: 192 °C, b: 308 °C)

---

Target: PDE4 enzyme
Assay: Inhibition of Phosphodiesterase Enzymes (PDE4), [3H]cAMP hydrolysis
Assay type: biochemical
Settings: PDE4 enzyme, 1 μM cAMP and 3H cAMP, 34° C.; read-out: IC50
Description: Inhibition of Phosphodiesterase Enzymes (PDE4) In this assay, PDE4 enzyme converts [^3H] cAMP to the corresponding [^3H] 5′-AMP in proportion to the amount of PDE4 present The [^3H] 5′-AMP then was quantitatively converted to free [^3H] adenosine and phosphate by the action of snake venom 5′-nucleotidase. […] Results were expressed as percent inhibition (IC50) in nM concentrations. The IC50 values were determined from the concentration curves by nonlinear regression analysis. […]
reported-metric: IC50 (nM)

compound="COc1ccc(C(=O)Nc2ccncc2)c2c1oc1ccc(Br)cc12 [Example 43]" reported_metric=IC50 reported_value=61.2

1: O=C(Nc1cc[n+]([O-])cc1)c1ccc(OC(F)F)c2oc3ccc(C(F)(F)F)cc3c12 [Example 15]
2: COc1ccc(C(=O)Nc2c(Cl)cncc2Cl)c2c1oc1ccc(N)cc12 [Example 55]
3: COc1ccc(C(=O)Nc2c(Cl)cncc2Cl)c2c3cc(Cl)ccc3n(Cc3ccccc3)c12 [Example 82]
In: Put the items in sequence by IC50, from largest down. Lab note: final answer is the ordered label list.
Out: 1, 3, 2
(1: 67.3 nM, 3: 19.6 nM, 2: 1.2 nM)

Entry source: patent US7238725B2
